assay: Log P by HPLC on reversed phase columns (EEC directive 79/831 Annex V.A8); assay type: physicochemical
READOUT_NAME: LogP

The measured LogP associated with OC(Cc1cc(F)ncc1Cl)(Cn1cncn1)c1ccc(Oc2ccc(F)cc2F)cc1 (stereo not shown) reads 3.02^[a]

The measured LogP associated with OC(Cc1cc(Cl)ncc1F)(Cn1cncn1)c1ccccc1 (stereo not shown) reads 1.86^[a]

The measured LogP associated with OC(Cc1cccnc1Cl)(Cn1cncn1)c1ccc(Cl)cc1 (stereo not shown) reads 1.99^[a]

The measured LogP associated with OC(Cc1ccnc(Cl)c1)(Cn1cncn1)c1ccc(Oc2ccccc2)cc1 (stereo not shown) reads 2.57^[a]

====

Please respond with reported LogP for every item in the list.
assay: Log P by HPLC on reversed phase columns (EEC directive 79/831 Annex V.A8); format: physicochemical

The measured LogP associated with OC(Cc1ccnc(Cl)c1)(Cn1cncn1)c1ccc(F)cc1 (stereo not shown) [Example I-05] reads 1.69^[a]

The measured LogP associated with OC(Cc1ccncc1F)(Cn1cncn1)c1ccc(F)cc1F (stereo not shown) [Example I-43] reads 1.47^[a]

The measured LogP associated with OC(Cc1ccnc(Cl)c1F)(Cn1cncn1)c1ccc(F)cc1F (single isomer, unassigned) [Example I-56] reads 2.21^[a]

The measured LogP associated with OC(Cc1cccnc1Cl)(Cn1cncn1)c1ccccc1 (stereo not shown) [Example I-51] reads 1.61^[a]

The measured LogP associated with OC(Cc1ccncc1Cl)(Cn1cncn1)c1ccc(Cl)cc1 (stereo not shown) [Example I-11] reads 1.86^[a]

The measured LogP associated with OC(Cc1ccnc(Cl)c1F)(Cn1cncn1)c1ccc(F)cc1F (single isomer, unassigned) [Example I-55] reads 2.21^[a]

The measured LogP associated with OC(Cc1ccncc1F)(Cn1cncn1)c1ccc(Oc2ccccc2)cc1 (stereo not shown) [Example I-03] reads 2.13^[a]

The measured LogP associated with OC(Cc1ccncc1Cl)(Cn1cncn1)c1ccc(F)cc1 (stereo not shown) [Example I-18] reads 1.57^[a]

The measured LogP associated with OC(Cc1ccncc1F)(Cn1cncn1)c1ccccc1 (stereo not shown) [Example I-36] reads 1.13^[a]

The measured LogP associated with OC(Cc1ccnc(Cl)c1F)(Cn1cncn1)c1ccccc1 (stereo not shown) [Example I-49] reads 1.84^[a]

The measured LogP associated with OC(Cc1ccncc1Cl)(Cn1cncn1)c1ccc(Oc2ccccc2)cc1 (stereo not shown) [Example I-01] reads 2.46^[a]

The measured LogP associated with OC(Cc1cc(F)ncc1Cl)(Cn1cncn1)c1ccc(F)cc1 (stereo not shown) [Example I-15] reads 2.12^[a]

The measured LogP associated with OC(Cc1ccncc1Cl)(Cn1cncn1)c1ccc(Cl)cc1Cl (stereo not shown) [Example I-42] reads 2.38^[a]

The measured LogP associated with OC(Cc1cccnc1Cl)(Cn1cncn1)c1ccc(C(F)(F)F)cc1 (stereo not shown) [Example I-16] reads 2.22^[a]

The measured LogP associated with OC(Cc1ccnc(Cl)c1F)(Cn1cncn1)c1ccc(F)cc1 (stereo not shown) [Example I-23] reads 1.91^[a]

The measured LogP associated with OC(Cc1cc(F)ncc1Cl)(Cn1cncn1)c1ccc(F)cc1F (stereo not shown) [Example I-41] reads 2.35^[a]

The measured LogP associated with OC(Cc1cc(F)ncc1Cl)(Cn1cncn1)c1ccc(Oc2ccccc2)cc1 (stereo not shown) [Example I-34] reads 3.02^[a]

The measured LogP associated with OC(Cc1ccnc(Cl)c1F)(Cn1cncn1)c1ccc(Oc2ccccc2)cc1 (stereo not shown) [Example I-46] reads 2.84^[a]

The measured LogP associated with OC(Cc1ccncc1F)(Cn1cncn1)c1ccc(F)cc1 (stereo not shown) [Example I-13] reads 1.26^[a]

The measured LogP associated with OC(Cc1cccnc1Cl)(Cn1cncn1)c1cccc(Cl)c1 (stereo not shown) [Example I-17] reads 1.97^[a]

The measured LogP associated with CC(C)(C)c1noc(-c2ccc(C(O)(Cc3ccncc3Cl)Cn3cncn3)cc2)n1 (stereo not shown) [Example I-38] reads 2.65^[a]

The measured LogP associated with OC(Cc1cc(F)ncc1Cl)(Cn1cncn1)c1ccc(Cl)cc1 (stereo not shown) [Example I-28] reads 2.43^[a]

The measured LogP associated with OC(Cc1ccncc1F)(Cn1cncn1)c1ccc(Oc2ccc(F)cc2F)cc1 (stereo not shown) [Example I-20] reads 2.27^[a]

The measured LogP associated with OC(Cc1ccncc1Cl)(Cn1cncn1)c1ccc(Oc2ccc(Cl)cc2)cc1 (stereo not shown) [Example I-06] reads 2.90^[a]

The measured LogP associated with OC(Cc1ccncc1Cl)(Cn1cncn1)c1ccc(F)cc1F (stereo not shown) [Example I-30] reads 1.76^[a]

The measured LogP associated with OC(Cc1ccnc(Cl)c1F)(Cn1cncn1)c1ccc(Cl)cc1Cl (stereo not shown) [Example I-09] reads 2.69^[a]

The measured LogP associated with OC(Cc1ccnc(Cl)c1)(Cn1cncn1)c1ccc(Cl)cc1 (stereo not shown) [Example I-47] reads 1.96^[a]

The measured LogP associated with OC(Cc1ccncc1Cl)(Cn1cncn1)c1ccc(Oc2ccc(F)cc2F)cc1 (stereo not shown) [Example I-19] reads 2.57^[a]

The measured LogP associated with OC(Cc1ccncc1F)(Cn1cncn1)c1ccc(Cl)cc1Cl (stereo not shown) [Example I-53] reads 2.00^[a]

The measured LogP associated with OC(Cc1ccnc(Cl)c1F)(Cn1cncn1)c1ccc(Cl)cc1 (stereo not shown) [Example I-10] reads 2.23^[a]

The measured LogP associated with OC(Cc1cc(Cl)ncc1F)(Cn1cncn1)c1ccc(F)cc1 (stereo not shown) [Example I-32] reads 1.96^[a]

The measured LogP associated with N#Cc1ccc(C(O)(Cc2cccnc2Cl)Cn2cncn2)cc1 (stereo not shown) [Example I-35] reads 1.47^[a]

The measured LogP associated with COC(Cc1ccnc(Cl)c1F)(Cn1cncn1)c1ccc(F)cc1F (stereo not shown) [Example I-57] reads 2.47^[a]

The measured LogP associated with OC(Cc1cc(F)ncc1Cl)(Cn1cncn1)c1ccccc1 (stereo not shown) [Example I-14] reads 2.02^[a]

The measured LogP associated with OC(Cc1cc(Cl)ncc1F)(Cn1cncn1)c1ccc(Cl)cc1 (stereo not shown) [Example I-40] reads 2.27^[a]

The measured LogP associated with OC(Cc1cc(Cl)ncc1F)(Cn1cncn1)c1ccc(F)cc1F (stereo not shown) [Example I-45] reads 2.13^[a]

The measured LogP associated with OC(Cc1ccnc(Cl)c1F)(Cn1cncn1)c1ccccc1Cl (stereo not shown) [Example I-07] reads 2.27^[a]
